Cited source: paper PMC9352680

- measurement.target: T1, PUF4 RNA-binding domain (Saccharomyces cerevisiae, UniProt P25339 537-888)
- T1 sequence: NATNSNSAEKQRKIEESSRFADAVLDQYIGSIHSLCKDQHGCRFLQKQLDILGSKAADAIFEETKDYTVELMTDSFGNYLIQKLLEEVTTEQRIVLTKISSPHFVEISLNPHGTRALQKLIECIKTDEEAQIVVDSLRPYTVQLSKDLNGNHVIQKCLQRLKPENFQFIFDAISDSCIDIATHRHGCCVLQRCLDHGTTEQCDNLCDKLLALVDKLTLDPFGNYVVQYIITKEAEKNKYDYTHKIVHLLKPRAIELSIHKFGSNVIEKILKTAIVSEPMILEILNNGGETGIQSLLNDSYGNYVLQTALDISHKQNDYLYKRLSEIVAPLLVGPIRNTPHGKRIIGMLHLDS
- assay.explanation: Mg; RNA-MaP; 20 mM Na-HEPES pH 7.4, 30 mM KOAc, 0.75 mM MgCl2, 0.1% Tween-20, 5% glycerol, 0.1 mg/mL BSA, 2 mM DTT; 25 C; 0.0125-409.6 nM protein
- test.conditions: tags: N-His6-TEV cleaved; C-SNAP kept, Cy3B-labelled; label: tethered on chip by stalled RNA polymerase
pKd: −log10 of the molar value.
True means recorded pKd is 8 or above; False means it is below 8.

UCUCUUUGUAAGUAAAUCUCUU (ssRNA) [Ic_S1_P5E.1_K5.1_C5.1_H5.1_A5.1_[T5A]_[T6G]_[A7T]_F5.1_[T8A]_[T9A]_T5.1] | False
UCUCUUUGUAUAAAAUCUCUU (ssRNA) [Ib_S1_P4E.1_K4.1_C4.1_H4.1_A4.1_[T7A]_F4.1_[T8A]_T4.1] | False

Inquiry: Does the binder Ib_S2_P5E.1_K5.1_C5.1_H5.1_[T1G]_[G2C]_A5.1_F5.1_T5.1 (ssRNA) RNA: UUUGAUUAAUAUGAUAUCGUUCUUUCUGCUAUUAUUAUUCUUUCUCGAUAUCAUAUUAAUCUUU have recorded pKd that is 8 or more?
Reply text: False

Inquiry: Does the binder UCUCUUUCUGUAUAUAGUUCUCUU (ssRNA) [Id_ii_S1_P3E.2_K3.1_C3.2_[C-2T]_[T-1C]_H3.1_A3.1_F3.1_T3.2_[T9G]_[A10T]] have recorded pKd that is 8 or more?
Reply text: True

Inquiry: Does the binder Ib_S2_P5E.1_K5.1_C5.1_H5.1_[T3G]_[A4C]_A5.1_F5.1_T5.1 (ssRNA) RNA: UUUGAUUAAUAUGAUAUCGUUCUUUCUUGGCUUAUUAUUCUUUCUCGAUAUCAUAUUAAUCUUU have recorded pKd that is 8 or more?
Reply text: False

Inquiry: Does the binder ACAAACUCACACUAUUAGUACAAAC (ssRNA) [Id_ii_S3_P4E.4_K4.3_C4.2_[C-2T]_[T-1C]_H4.3_A4.1_F4.1_T4.2] have recorded pKd that is 8 or more?
Reply text: False
